Assign OD450 to each entry below.
- tgt: T1, extracellular tau in the form of paired helical filaments (ePHF tau) (UniProt P10636-8 1-441, limits assumed)
- T1 construct: Aggregated, hyperphosphorylated tau preparation; not a single defined polypeptide
- measurementDescription: ePHF tau ELISA, ePHF coated; antibody at 500.0 ng/ml; anti-mouse-HRP
Output spec: scalar in OD450, unitless text.

Can you share its OD450? I mean this binder: anti-tau antibody MC1 expressed from viral genome construct MC1LF.F2AH (TAU_ITR78; SEQ ID NO: 2067) (antibody, V domains shown) VH: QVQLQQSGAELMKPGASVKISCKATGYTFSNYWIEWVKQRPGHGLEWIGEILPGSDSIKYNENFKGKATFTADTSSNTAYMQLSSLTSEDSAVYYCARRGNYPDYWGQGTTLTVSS VL: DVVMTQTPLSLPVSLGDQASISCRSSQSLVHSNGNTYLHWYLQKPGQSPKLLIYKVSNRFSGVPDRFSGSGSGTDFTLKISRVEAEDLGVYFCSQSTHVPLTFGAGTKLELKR
1

Endpoint output: OD450 of anti-tau antibody MC1 expressed from viral genome construct MC1HIRESL (TAU_ITR75; SEQ ID NO: 2064) (antibody, mouse IgG1, kappa, V domains shown) VH: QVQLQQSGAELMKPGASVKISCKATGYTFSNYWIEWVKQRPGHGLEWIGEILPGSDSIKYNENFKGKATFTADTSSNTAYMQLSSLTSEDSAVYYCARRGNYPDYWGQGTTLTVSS VL: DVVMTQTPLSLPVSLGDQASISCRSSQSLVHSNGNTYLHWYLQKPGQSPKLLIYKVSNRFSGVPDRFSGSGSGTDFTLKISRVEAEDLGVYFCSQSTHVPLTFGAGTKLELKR . Value?
0.7

For anti-tau antibody MC1 expressed from viral genome construct MC1LIRESH (TAU_ITR80; SEQ ID NO: 2069) (antibody, mouse IgG1, kappa, V domains shown) VH: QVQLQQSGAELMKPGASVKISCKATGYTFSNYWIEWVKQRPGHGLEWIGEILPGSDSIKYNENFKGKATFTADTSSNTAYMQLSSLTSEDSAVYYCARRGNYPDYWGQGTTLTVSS VL: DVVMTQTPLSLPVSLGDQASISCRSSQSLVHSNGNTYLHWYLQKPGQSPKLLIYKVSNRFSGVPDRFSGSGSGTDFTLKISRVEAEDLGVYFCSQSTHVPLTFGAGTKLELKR , what is its reported OD450?
0.9

From: patent US20220339270A1
